Measured values drawn from the supplement of paper PMC10201428 for this set.

- Test system: VchCAST RNA-guided transposition machinery (E. coli BL21(DE3) host, lacZ target)
- Experiment: relative integration efficiency (T-RL orientation) vs wild-type transposon end (log2 (normalized fold change)); transposon end mutated: right end (5 bp flank + 75 bp right end); higher = more efficient transposition
Measured Endpoint: relative integration efficiency (log2)
// return just the number, without any unit appended

[ask] For ACATTTGTCGATACAACCATAAAATGATAATTACACCCATAAATTGATCATTATCACCCCCAATTTAACTATAACGCTCTGATCATAGTCAGACCAACATTGCTACGACCCGTATTCGCACCGACAC , what is its reported relative integration efficiency (log2)?
[reply] -1.31

[ask] And ACATTTGTTGATACACACATAAAATGATAATTACACCCATAAATTGATAATTATCACACCCATAAATTGATATTGCCTCTGATCATAGTCAGACCAACATTGCTACGACCCGTATTCGCACCGACAC ?
[reply] -0.562

[ask] And ACATTTGTTGATACCACCATAAAATGGTAATTCCACCCCTAAATTGATAATTATCACACCCAATTTAACTATAACGCTCTGATCATAGTCAGACCAACATTGCTACGACCCGTATTCGCACCGACAC ?
[reply] -3.4

[ask] And ACATTTGTTGATACAACCATAAAATGAGCCGGCCACCCATAAATTGAGCCGGCTCACACCCATAAATTGAGCGGTACTCTGATCATAGTCAGACCAACATTGCTACGACCCGTATTCGCACCGACAC ?
[reply] -4.23

Proceed to the following item.
[ask] For ACATTTGTTGATACAACCATAAAGTGATATTTACAACCATAAAGTGATATTTATCACAACCATATATTGATATCTCCTCTGATCATAGTCAGACCAACATTGCTACGACCCGTATTCGCACCGACAC , what is its reported relative integration efficiency (log2)?
[reply] 0.115
